target or system: TRPC3 (Homo sapiens)
Construct: expressed in transfected cells
protocol text: Whole-cell patch-clamp recordings in HEK TRPC3-YFP cells
Format: cell-based
condition details: +100 mV, n = 12–27 cells, read-out: EC50 to activate TRPC3 outward currents
readout name: EC50

In [3]: df
Out[3]:
                                   molecule  assay_value
0  C[C@@H]1CC[C@H]2[C@@H](C)C(=O)O[C@@H]3O[C@@]4(C)CC[C@@H]1[C@]32OO4 [artemisinin]        33 µM

----------
Reported IC50 values for a set of compounds
target or system: UniProtKB Q13507
protocol text: Fluo-4 Ca2+ influx assay in HEK TRPC3-YFP cell suspensions
condition details: inhibitor 5 min, then 50 µM artemisinin, fluo-4; read-out: IC50 for inhibition of artemisinin-induced increases in [Ca2+]i
readout name: IC50

                                   compound  assay_value
0  N#Cc1ccc(O[C@@H]2c3ccccc3C[C@H]2N2CCC[C@@H](N)C2)c(Cl)c1      1400 nM
1  COc1ccc(Nc2nc(C(=O)N3CCc4ccccc4C3)cs2)cc1 [GSK417654A]       500 nM

----------
target or system: TRPC3 (Homo sapiens, UniProt Q13507)
Construct: expressed in transfected cells
Sequence (Q13507 1-848 isoform Q13507-3): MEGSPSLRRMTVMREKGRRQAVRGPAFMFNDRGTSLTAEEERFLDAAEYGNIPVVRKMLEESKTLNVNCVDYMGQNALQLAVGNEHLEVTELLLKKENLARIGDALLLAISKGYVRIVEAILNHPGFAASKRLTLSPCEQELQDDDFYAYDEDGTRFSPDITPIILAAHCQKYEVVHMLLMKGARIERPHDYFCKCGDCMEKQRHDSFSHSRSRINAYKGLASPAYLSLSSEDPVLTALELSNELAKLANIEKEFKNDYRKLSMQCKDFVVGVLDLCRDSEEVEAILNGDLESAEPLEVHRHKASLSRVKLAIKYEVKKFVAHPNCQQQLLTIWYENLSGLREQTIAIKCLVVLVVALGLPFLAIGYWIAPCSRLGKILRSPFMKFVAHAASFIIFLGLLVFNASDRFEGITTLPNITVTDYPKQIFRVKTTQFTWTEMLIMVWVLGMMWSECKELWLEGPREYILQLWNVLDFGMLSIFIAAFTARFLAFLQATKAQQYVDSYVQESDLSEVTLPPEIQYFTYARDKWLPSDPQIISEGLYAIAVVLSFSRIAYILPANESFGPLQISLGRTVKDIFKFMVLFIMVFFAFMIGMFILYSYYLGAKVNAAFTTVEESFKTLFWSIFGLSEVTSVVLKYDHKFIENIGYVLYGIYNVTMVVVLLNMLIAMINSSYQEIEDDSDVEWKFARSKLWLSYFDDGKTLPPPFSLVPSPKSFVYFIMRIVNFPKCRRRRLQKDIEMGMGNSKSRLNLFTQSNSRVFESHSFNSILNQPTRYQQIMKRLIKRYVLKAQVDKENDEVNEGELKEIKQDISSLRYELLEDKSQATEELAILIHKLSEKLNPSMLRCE
protocol text: Fluo-4 Ca2+ influx assay in HEK TRPC3-YFP cell suspensions
Assay type: cell-based
condition details: fluo-4, HEK TRPC3-YFP cell suspensions; read-out: potency to activate Ca2+ entry through TRPC3
readout name: EC50 (µM)

>>> df
                                   compound                      target_or_system  assay_value
0  C[C@@H]1CC[C@H]2[C@@H](C)C(=O)O[C@@H]3O[C@@]4(C)CC[C@@H]1[C@]32OO4 [artemisinin]  TRPC3 (Homo sapiens, UniProt Q13507)         32.8
1  CO[C@H]1O[C@@H]2O[C@@]3(C)CC[C@H]4[C@H](C)CC[C@@H]([C@H]1C)[C@@]24OO3 [artemether]  TRPC3 (Homo sapiens, UniProt Q13507)         14.8
